Provenance of the data: paper PMC6764022

Form field: MWAUC (Table S3), reduced (one value per entry).
experiment.description: Sedimentation equilibrium analytical ultracentrifugation (AUC)
Format: physicochemical
applied.conditions: 10 fold excess of TCEP; 55 μM, PBS, 20 °C; 280 nm (235 nm for the KE peptides)
Give the value in Da but do not write Da after it.

Worked examples follow.
substance	endpoint.result
Ac-CGG KIAALKQ KNAALKY EIAALEQ ENAALEQ G-NH2 (Ac-CGGKIAALKQKNAALKYEIAALEQENAALEQG-NH2) [C-CC-Di-KE, CC-Di-KE with N-terminal Cys]	3126
Ac-G EIAALEQ ENAALEQ KIAALKW KNAALKQ GC-NH2 (Ac-GEIAALEQENAALEQKIAALKWKNAALKQGC-NH2) [CC-Di-EK-C, CC-Di-EK with C-terminal Cys]	3474
Ac-CGG EIAALEQ ENAALEQ KIAALKW KNAALKQ G-NH2 (Ac-CGGEIAALEQENAALEQKIAALKWKNAALKQG-NH2) [C-CC-Di-EK, N-terminally Cys-labelled CC-Di-EK]	6683

Continue with the next substance.
Using the record for Ac-G KIAALKQ KNAALKY EIAALEQ ENAALEQ GC-NH2 (Ac-GKIAALKQKNAALKYEIAALEQENAALEQGC-NH2) [CC-Di-KE-C, CC-Di-KE with C-terminal Cys] , report its MWAUC (Table S3), reduced.
3062

----------
experiment.description: Sedimentation equilibrium analytical ultracentrifugation (AUC)
Assay type: physicochemical
applied.conditions: 10 fold excess of TCEP; 55 μM, PBS, 20 °C
Form field: Oligomeric state (Table S3), reduced (one value per entry).
Give the value in x monomer but do not write x monomer after it.

Worked examples follow.
substance	measurement.units	Oligomeric state (Table S3), reduced
Ac-G KIAALKQ KNAALKY EIAALEQ ENAALEQ GC-NH2 (Ac-GKIAALKQKNAALKYEIAALEQENAALEQGC-NH2) [CC-Di-KE-C, CC-Di-KE with C-terminal Cys]	x monomer	0.92
Ac-G EIAALEQ ENAALEQ KIAALKW KNAALKQ GC-NH2 (Ac-GEIAALEQENAALEQKIAALKWKNAALKQGC-NH2) [CC-Di-EK-C, CC-Di-EK with C-terminal Cys]	x monomer	1.04
Ac-CGG EIAALEQ ENAALEQ KIAALKW KNAALKQ G-NH2 (Ac-CGGEIAALEQENAALEQKIAALKWKNAALKQG-NH2) [C-CC-Di-EK, N-terminally Cys-labelled CC-Di-EK]	x monomer	1.96

Continue with the next substance.
Using the record for Ac-CGG KIAALKQ KNAALKY EIAALEQ ENAALEQ G-NH2 (Ac-CGGKIAALKQKNAALKYEIAALEQENAALEQG-NH2) [C-CC-Di-KE, CC-Di-KE with N-terminal Cys] , report its Oligomeric state (Table S3), reduced.
0.92
